Fold-Improvement values for the binders below.
Biological target: LINGO-1 (human) (UniProt Q96FE5)
Assay: affinity vs parent Li62 Fab; method not stated
Please give a number only; it is taken to be in fold.

Here is how some binders turned out for Fold-Improvement.
Li62 variant F06 Fab (VH CDR3 SEQ ID NO:19) (Fab, V domains shown) VH: EVQLLESGGGLVQPGGSLRLSCAASGFTFSIYPMFWVRQAPGKGLEWVSWIGPSGGITKYADSVKGRFTISRDNSKNTLYLQMNSLRAEDTATYYCAREGDYDWYFDLWGRGTLVTVSS VL: DIQMTQSPSFLSASVGDSVAITCRASQDISRYLAWYQQRPGKAPKLLIYDASNLQTGVPSRFSGSGSGTDFTFTITSLQPEDFGTYYCQQYDTLHPSFGPGTTVDIK | 12
Li62 variant D09 Fab (VH CDR3 SEQ ID NO:21) (Fab, V domains shown) VH: EVQLLESGGGLVQPGGSLRLSCAASGFTFSIYPMFWVRQAPGKGLEWVSWIGPSGGITKYADSVKGRFTISRDNSKNTLYLQMNSLRAEDTATYYCAREADIDWFFDLWGRGTLVTVSS VL: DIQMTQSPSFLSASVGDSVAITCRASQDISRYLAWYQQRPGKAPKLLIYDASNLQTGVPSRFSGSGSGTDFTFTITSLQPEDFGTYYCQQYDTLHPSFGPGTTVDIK | 15

Field: next binder
Q) Look up Fold-Improvement: Li62 variant H08 Fab (VH CDR3 SEQ ID NO:34) (Fab, V domains shown) VH: EVQLLESGGGLVQPGGSLRLSCAASGFTFSIYPMFWVRQAPGKGLEWVSWIGPSGGITKYADSVKGRFTISRDNSKNTLYLQMNSLRAEDTATYYCAREGTYDWYFDLWGRGTLVTVSS VL: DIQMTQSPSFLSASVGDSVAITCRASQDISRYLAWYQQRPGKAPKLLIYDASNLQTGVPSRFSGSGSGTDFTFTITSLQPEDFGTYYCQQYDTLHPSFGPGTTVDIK
A) 9
